Taken from paper PMC5540273.

test system: CDK11; construct: gene CDK19; details: concentration: 1 μM, replicates: in singlicate; n = 1;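 further: KINOMEscan kinase panel screen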
# %Inh values compiled below
reported endpoint: %Inh (%)

>>> observed("O=C(NC1CCN(c2ccnc(Nc3ccc(F)cc3)n2)C1)c1cc2ccccc2s1 (stereo not shown) [GSK1379716]")
36
>>> observed("O=C(O)C(F)(F)F.O=C(O)C(F)(F)F.O=c1[nH]ccc2nc(N[C@@H]3CCCNC3)nc(Nc3ccc(S(=O)(=O)N4CCOCC4)cc3)c12 [GSK2177277]")
0
>>> observed("O=C(Nc1cccc(Oc2ccc3nc(NC(=O)C4CC4)cn3n2)c1)c1ccccc1C(F)(F)F")
1
>>> observed("Cl.c1ccc(-c2ccc3c(Nc4ccc5[nH]ccc5c4)ccnc3c2)nc1 [GW440138]")
4
>>> observed("C[C@@H](Oc1cc(-n2cnc3cc(-c4ccnc(NCCS(C)(=O)=O)c4)ccc32)sc1C(N)=O)c1ccccc1Cl [GSK907232]")
20
>>> observed("Cn1cc(-c2ccc3c(c2)CCN3C(=O)Cc2cccc(Cl)c2)c2c(N)ncnc21 [GSK2606590]")
99.5
>>> observed("CN1CCN(CCCNc2nccc(-c3c(-c4ccc(F)cc4)nn4cc(C(F)(F)F)ccc34)n2)CC1 [GW621581]")
0
>>> observed("FC(F)(F)c1ccc(/C=C/c2cncnc2Nc2ccc3[nH]c(Cc4ccccc4)nc3c2)cc1 [GW709199]")
10
>>> observed("COc1ccc(-c2coc3ccc(-c4nnc(SCc5ccc(OC)c(C(F)(F)F)c5)o4)cc23)cc1")
57
>>> observed("O=C(Nc1cccc(-c2nn3ccccc3c2-c2ccnc(Nc3cccc(C(F)(F)F)c3)n2)c1)c1c(F)cccc1F [GSK292658]")
0
>>> observed("Cc1ccc(C(=O)Nc2ccc(Nc3ccnc4cc(-c5nccs5)ccc34)cc2O)cc1.Cl [GW494702]")
0
>>> observed("Cl.Cl.NCC(C(=O)Nc1cc(Br)c(-c2ccnc3[nH]ccc23)s1)c1ccccc1 (stereo not shown) [GSK1269851]")
17
>>> observed("Cc1ccc(S(=O)(=O)Nc2ccc(Nc3nccc(Nc4cccc5[nH]ncc45)n3)cc2)cc1 [GSK581271]")
0
>>> observed("Cc1occc1-c1ncc(OC[C@@H](N)Cc2c[nH]c3ccccc23)cc1-c1ccc2[nH]nc(C)c2c1.O=C(O)C(F)(F)F [GSK682037]")
35
>>> observed("Cl.NC(=O)c1cccc(Nc2nccc(Nc3ccc(Oc4c(Cl)cccc4Cl)c(Cl)c3)n2)c1 [GW659009]")
88
>>> observed("Nc1n[nH]c2cnc(-c3ccccc3)cc12 [SB-642124]")
0

---

test system: PKN2; conditions: concentration: 1 μM, replicates: in singlicate; n = 1
Below, each entry is listed alongside its reported %Inh.
reported endpoint: %Inh

>>> observed("O=c1[nH]cc(-c2ccc(N3CCOCC3)cc2)c2sc(-c3cn[nH]c3)cc12")
"0%"
>>> observed("CCn1c(-c2nonc2N)nc2c(C#CC(C)(C)O)nc(OC[C@H](N)c3ccccc3)cc21")
"19%"
>>> observed("CC(=O)Nc1nc2cnc(Nc3cc(NC(=O)c4cccc(C5(C#N)CC5)c4Cl)ccc3C)nc2s1")
"0%"
>>> observed("Cc1ccc(C(=O)N2CC[C@@H](O)C2)cc1-n1c(C)cc(OCc2ccc(F)cc2F)c(Br)c1=O")
"0%"
>>> observed("CCc1ccc(-c2ccc3c(c2)-c2c(cnn2C)S(=O)(=O)N3C)cc1")
"0%"
>>> observed("O=C(Nc1n[nH]c2cc(-c3ccoc3)ccc12)C1CC1")
"22%"
>>> observed("c1ccc(-c2cnc3nccnn23)cc1")
"0%"
>>> observed("CN(c1ccc(NC(=O)Nc2cc(C(F)(F)F)ccc2F)cc1)c1ccnc(Nc2ccc(S(N)(=O)=O)cc2)n1")
"8%"
>>> observed("COc1cc(Nc2nccc(-c3c(-c4cccc(NC(=O)c5c(F)cccc5F)c4)nn4ncccc34)n2)cc(OC)c1OC")
"13%"
>>> observed("c1ccc(-c2n[nH]cc2Nc2ccnc3ccccc23)nc1")
"0%"
>>> observed("COc1ccc(-c2coc3ccc(-c4nnc(SCc5ccc(OC)c(C(F)(F)F)c5)o4)cc23)cc1")
"3%"
>>> observed("Cl.Cl.NCC(NC(=O)c1cc(-c2ccccc2)c(-c2ccnc3[nH]ccc23)s1)c1ccccc1 (centres unmarked)")
"19%"
>>> observed("Clc1ccc(-c2nn3ncccc3c2-c2ccnc(Nc3ccc4c(c3)OCCO4)n2)cc1")
"0%"
>>> observed("COc1ccc(Nc2nccc(NCCNC(=O)c3cc4ccccc4s3)n2)cc1")
"0%"
>>> observed("Cl.Cl.NCC(C(=O)Nc1cc(Br)c(-c2ccnc3[nH]ccc23)s1)c1ccccc1 (centres unmarked)")
"15%"
>>> observed("Oc1cc(Nc2ccnc3cc(I)ccc23)ccc1F")
"0%"
>>> observed("COc1cc(Nc2nccc(-c3c(-c4cccc(NC(=O)c5c(F)cccc5F)c4)nn4ccccc34)n2)cc(OC)c1OC")
"6%"
